Settings: in isopropanol, 318.15 K
endpoint-name: solubility (mole fraction)
Answers are plain numbers.

## Input Recorded solubility (mole fraction) of O=C(O)CCCc1c[nH]c2ccccc12 , please.
## Output 0.128

###

Conditions: in isopropanol, 313.15 K
endpoint-name: solubility (mole fraction)
Numbers only.

## Input Recorded solubility (mole fraction) of O=C(O)CCCc1c[nH]c2ccccc12 , please.
## Output 0.112

###

Settings: in methanol, 313.15 K
endpoint-name: solubility (mole fraction)
Answers are plain numbers.

## Input Recorded solubility (mole fraction) of O=C(O)CCCc1c[nH]c2ccccc12 , please.
## Output 0.123

###

Conditions: in dimethyl carbonate, 293.15 K
endpoint-name: solubility (mole fraction)
Numbers only.

## Input Recorded solubility (mole fraction) of O=C(O)CCCc1c[nH]c2ccccc12 , please.
## Output 0.0287
